Study System: UniProt P08183
Protocol Details: in vitro
Test Context: Caco-2, pH 7.4
Quantity Name: Papp A→B at 120 min, 5 μM (×10⁻⁶ cm/s)
Respond numerically; units are ×10⁻⁶ cm/s and should not be typed.

The reported value for Cc1cccc(C)c1OCC(=O)N[C@@H](Cc1ccccc1)[C@@H](O)C[C@H](Cc1ccccc1)NC(=O)[C@H](C(C)C)N1CCCNC1=O (relative stereo) [Lopinavir] in terms of Papp A→B at 120 min, 5 μM is 10.7

----------
Study System: P-glycoprotein (Homo sapiens, UniProt P08183)
Sequence (P08183 whole entry): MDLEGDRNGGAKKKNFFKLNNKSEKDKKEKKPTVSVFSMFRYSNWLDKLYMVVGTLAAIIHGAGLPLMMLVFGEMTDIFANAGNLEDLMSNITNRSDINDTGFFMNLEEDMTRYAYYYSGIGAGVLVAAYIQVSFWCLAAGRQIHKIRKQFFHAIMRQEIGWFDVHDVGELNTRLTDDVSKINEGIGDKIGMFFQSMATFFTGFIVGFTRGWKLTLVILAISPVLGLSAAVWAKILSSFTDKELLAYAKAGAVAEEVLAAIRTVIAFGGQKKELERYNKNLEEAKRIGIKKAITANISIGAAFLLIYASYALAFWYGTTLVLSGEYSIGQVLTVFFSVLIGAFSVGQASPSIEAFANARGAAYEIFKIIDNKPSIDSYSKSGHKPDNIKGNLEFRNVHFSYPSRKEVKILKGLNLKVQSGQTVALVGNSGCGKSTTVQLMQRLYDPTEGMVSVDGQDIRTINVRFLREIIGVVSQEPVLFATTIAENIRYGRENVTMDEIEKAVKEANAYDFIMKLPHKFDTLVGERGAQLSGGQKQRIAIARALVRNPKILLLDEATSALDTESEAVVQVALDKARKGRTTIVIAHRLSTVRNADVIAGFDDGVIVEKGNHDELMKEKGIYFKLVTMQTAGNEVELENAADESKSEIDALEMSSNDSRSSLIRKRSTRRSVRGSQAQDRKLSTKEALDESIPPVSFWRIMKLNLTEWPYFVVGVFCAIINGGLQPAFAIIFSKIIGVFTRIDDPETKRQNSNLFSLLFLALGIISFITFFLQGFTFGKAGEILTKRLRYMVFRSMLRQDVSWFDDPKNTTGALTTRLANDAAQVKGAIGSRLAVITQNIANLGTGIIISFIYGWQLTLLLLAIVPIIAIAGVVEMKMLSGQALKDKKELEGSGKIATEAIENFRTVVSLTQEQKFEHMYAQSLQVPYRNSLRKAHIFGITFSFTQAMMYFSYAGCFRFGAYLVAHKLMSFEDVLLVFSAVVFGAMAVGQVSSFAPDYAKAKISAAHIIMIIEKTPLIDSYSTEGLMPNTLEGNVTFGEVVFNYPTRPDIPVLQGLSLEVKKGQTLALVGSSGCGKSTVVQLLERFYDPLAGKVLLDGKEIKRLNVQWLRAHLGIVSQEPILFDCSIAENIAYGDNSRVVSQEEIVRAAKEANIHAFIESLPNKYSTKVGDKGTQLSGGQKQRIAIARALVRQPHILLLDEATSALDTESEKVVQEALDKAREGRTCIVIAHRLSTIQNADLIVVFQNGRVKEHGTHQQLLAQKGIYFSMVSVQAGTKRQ
Protocol Details: in vitro
Test Context: Caco-2
Quantity Name: Papp B→A at 120 min, 5 μM (×10⁻⁶ cm/s)
Field: numeric (×10⁻⁶ cm/s). Do not append units.

In plain terms, `CC[C@]1(O)C[C@@H]2CN(CCc3c([nH]c4ccccc34)[C@@](C(=O)OC)(c3cc4c(cc3OC)N(C)[C@H]3[C@@](O)(C(=O)OC)[C@H](OC(C)=O)[C@]5(CC)C=CCN6CC[C@]43[C@@H]65)C2)C1` has a documented Papp B→A at 120 min, 5 μM of 17.7

----------
Study System: P-glycoprotein (Homo sapiens)
Protocol Details: in vitro
Test Context: Caco-2
Quantity Name: efflux ratio at 120 min, 5 μM
The response must contain the number and no unit.

Short answer for `CC[C@]1(O)C[C@@H]2CN(CCc3c([nH]c4ccccc34)[C@@](C(=O)OC)(c3cc4c(cc3OC)N(C)[C@H]3[C@@](O)(C(=O)OC)[C@H](OC(C)=O)[C@]5(CC)C=CCN6CC[C@]43[C@@H]65)C2)C1` : efflux ratio at 120 min, 5 μM was 19.5

----------
Study System: P-glycoprotein (Homo sapiens, UniProt P08183)
Protocol Details: in vitro
Test Context: Caco-2, pH 7.4
Quantity Name: Papp B→A at 120 min, 5 μM (×10⁻⁶ cm/s)
Response body: numeric value in ×10⁻⁶ cm/s, unit text excluded.

Form: compound = Cc1cccc(C)c1OCC(=O)N[C@@H](Cc1ccccc1)[C@@H](O)C[C@H](Cc1ccccc1)NC(=O)[C@H](C(C)C)N1CCCNC1=O (relative stereo) [Lopinavir] ; Papp B→A at 120 min, 5 μM = 9.55
